Where do these numbers come from? They come from paper PMC4111603.

- measured-on: Ovine COX-1 (Ovis aries)
- Construct: purchased Cayman Chemical Co. 60100
- Sequence (P05979 25-600): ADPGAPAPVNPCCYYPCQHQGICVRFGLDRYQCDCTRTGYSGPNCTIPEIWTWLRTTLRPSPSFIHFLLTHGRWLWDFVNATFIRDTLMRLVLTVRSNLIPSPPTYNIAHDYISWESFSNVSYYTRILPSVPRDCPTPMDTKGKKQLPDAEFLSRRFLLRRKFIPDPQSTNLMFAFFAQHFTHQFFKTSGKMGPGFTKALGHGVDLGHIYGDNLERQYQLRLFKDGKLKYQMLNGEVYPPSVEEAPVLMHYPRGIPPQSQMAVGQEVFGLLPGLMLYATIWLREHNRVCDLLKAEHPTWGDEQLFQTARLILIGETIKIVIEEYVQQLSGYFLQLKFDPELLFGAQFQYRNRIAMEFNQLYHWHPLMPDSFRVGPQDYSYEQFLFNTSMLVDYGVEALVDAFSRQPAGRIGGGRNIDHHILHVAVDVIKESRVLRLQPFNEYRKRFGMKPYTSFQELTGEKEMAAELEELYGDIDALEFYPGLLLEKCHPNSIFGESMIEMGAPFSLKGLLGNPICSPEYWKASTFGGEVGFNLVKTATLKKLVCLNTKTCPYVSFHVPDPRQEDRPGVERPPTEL
- method-summary: COX-1 oxygenation of arachidonic acid, oxygen electrode
- Type: biochemical
- measurement-context: 300 µM NSAID; 10 µM AA; initial activity 10-30 s; mean ± s.e.m., n = 3
endpoint-label: COX-1 activity (% of control)

Please review the following examples before continuing.
In [3]: df
Out[3]:
                                   molecule               measured_on         test_result
0  CC(C(=O)O)c1ccc(CC(C)(C)O)cc1 (stereo not shown)  Ovine COX-1 (Ovis aries)   91±5 % of control
1  CC(C(=O)O)c1ccc(C(O)C(C)C)cc1 (stereo not shown)  Ovine COX-1 (Ovis aries)  81±21 % of control
2  CC(C(=O)O)c1ccc(-c2ccc(O)cc2)c(F)c1 (stereo not shown)  Ovine COX-1 (Ovis aries)  72±20 % of control

For the next question, use this molecule.
What measured COX-1 activity (% of control) goes with CC(CO)Cc1ccc(C(C)C(=O)O)cc1 (stereo not shown) ?
97±10 % of control
